tested on: M19-MEL; assay: NCI tumour cell line growth inhibition, 48 h
The source made the active and inactive calls. No stated cut-off is given here; in the data, active = GI50 up to about 1.1 µM and inactive = higher.
Outcome codes: active, inactive

- compound: "COc1cc(C(O)C(=O)c2cnc3cc([N+](=O)[O-])ccc3n2)ccc1O (stereo not drawn)"
  tested system: "M19-MEL"
  category label: "inactive"
- compound: "O=c1c(-c2cccc3ccccc23)c(-c2cccc3ccccc23)c1=O"
  tested system: "M19-MEL"
  category label: "inactive"
- compound: "O=C(O)CCC1c2[nH]c3ccccc3c2CCN1Cc1ccccc1 (stereo not drawn)"
  tested system: "M19-MEL"
  category label: "inactive"
- compound: "S=P1(Sc2ccccc2)Oc2ccc3ccccc3c2-c2c(ccc3ccccc23)O1"
  tested system: "M19-MEL"
  category label: "inactive"
- compound: "COc1ccc(-c2cc(O)c3ccc(F)cc3n2)cc1"
  tested system: "M19-MEL"
  category label: "inactive"
- compound: "CC(C)(C)NNc1c([N+](=O)[O-])cnn(-c2ccccc2)c1=O"
  tested system: "M19-MEL"
  category label: "inactive"
- compound: "C/C(=C1/N=C(c2cc([N+](=O)[O-])ccc2Cl)N(c2ccc(Br)cc2)C1=O)c1ccc(N(CCC#N)CCC#N)cc1C"
  tested system: "M19-MEL"
  category label: "inactive"
- compound: "O=c1oc2c(O)c(O)cc3c(=O)oc4c(O)c(O)cc1c4c23 [ELLAGIC ACID]"
  tested system: "M19-MEL"
  category label: "inactive"
- compound: "CC1(O)C(C)(O)C2(C)O[Te]3(OC12C)OC1(C)C(C)(O)C(C)(O)C1(C)O3 (stereo not drawn)"
  tested system: "M19-MEL"
  category label: "inactive"
- compound: "O=C(Cc1nc2c3c(ccc2nc1O)C(=O)c1ccccc1C3=O)C(=O)Nc1ccccc1[N+](=O)[O-]"
  tested system: "M19-MEL"
  category label: "inactive"
- compound: "C/C(=N/N)c1ccc2[nH]c3c(C)cc([N+](=O)[O-])c(C)c3c2c1"
  tested system: "M19-MEL"
  category label: "inactive"
- compound: "CC(C(=O)c1ccc(Cl)cc1)C1OC(=O)C(Cl)=C1Cl (stereo not drawn)"
  tested system: "M19-MEL"
  category label: "inactive"
- compound: "C=C1C(O)C2(O)OCC34C(CC5C(C)=CC(=O)C(O)C5(C)C23)OC(=O)C(OC(=O)C/C=C(\\C)CCCCC)C14 (stereo not drawn)"
  tested system: "M19-MEL"
  category label: "active"
- compound: "O/N=C1/C(=C/c2ccc(Cl)c(Cl)c2)CCCC1C(NO)c1ccc(Cl)c(Cl)c1 (stereo not drawn)"
  tested system: "M19-MEL"
  category label: "inactive"
- compound: "NNC(=O)C(=O)N/N=C1\\CCC(=O)CC1C(=O)CCC(=O)Nc1ccc(Cl)cc1 (stereo not drawn)"
  tested system: "M19-MEL"
  category label: "inactive"
- compound: "COc1ccccc1/C=C/C(=O)c1sc(-c2cccnc2)nc1C"
  tested system: "M19-MEL"
  category label: "inactive"
- compound: "COc1cc2c(cc1OC(=O)CC(C)O)C1C(OC2=O)C(OC(C)=O)C=C2CCN(C)[C@H]21 (stereo partly drawn)"
  tested system: "M19-MEL"
  category label: "inactive"
- compound: "Cc1cc(Cl)cc2c1NC(=O)C2(O)CC(=O)c1ccc(Br)cc1 (stereo not drawn)"
  tested system: "M19-MEL"
  category label: "inactive"
- compound: "C/C(CC(=O)Nc1cc(C)ccc1C)=N\\NC(=O)c1ccncc1"
  tested system: "M19-MEL"
  category label: "inactive"
- compound: "COC1=C(C)C(=O)C2C(C1=O)C(c1ccc(OC)c(OC)c1)[C@H]2C (stereo partly drawn)"
  tested system: "M19-MEL"
  category label: "inactive"
- compound: "C=C1C2CC(OC(C)=O)C3(C)C(c4ccoc4)OC(=O)[C@@H](O)[C@]13OC1C[C@H](OC(C)=O)C(C)(C)[C@H](C(O)C(=O)OC)[C@]12C (stereo partly drawn)"
  tested system: "M19-MEL"
  category label: "inactive"
- compound: "Cc1ccc2oc(=O)cc(CC(=O)O)c2c1"
  tested system: "M19-MEL"
  category label: "inactive"
- compound: "Cc1cc(O)c2c3c1C(=O)Oc1c(CO)c(O)c(C(=O)O)c(c1O3)C=NN=Cc1c3c(c(CO)c(O)c1C(=O)O)OC(=O)c1c(C)cc(O)c(c1O3)C=NN=C2"
  tested system: "M19-MEL"
  category label: "inactive"

----------
test system: SF-268; test: NCI tumour cell line growth inhibition, 48 h
Calls of active or inactive are those of the source. Cut-off read from the data, not from the text of the source: active = GI50 up to about 1.1 µM and inactive = higher.
Listing of recorded GI50 by entry.

- molecule: "CC1=CCC([C@@](C)(O)CCCC(C)(C)N=C=S)CC1 (stereo not given in full)"
  GI50: "16.8 µM (inactive)"
- molecule: "COc1ccc(P2(=S)Oc3ccc(C(c4ccccc4)(c4ccccc4)c4ccccc4)cc3O2)cc1 (stereo not given)"
  GI50: "17.2 µM (inactive)"
- molecule: "FC(F)(F)c1cccc(C2SCc3nc4ccccc4n32)c1 (stereo not given)"
  GI50: "90.6 µM (inactive)"
- molecule: "CN(C)c1ccc(/C=N/Nc2nc3ccccc3c(=O)n2-c2ccccc2)cc1"
  GI50: "43.5 µM (inactive)"
- molecule: "C[N+]1(C)[C@@H]2CC[C@H]1C[C@@H](OC(=O)C(CO)c1ccccc1)C2 (stereo not given in full) [ATROPINE METHYLBROMIDE]"
  GI50: "> 100 µM (inactive)"
- molecule: "Cc1no[n+]([O-])c1/C=N/NS(=O)(=O)c1ccccc1"
  GI50: "> 100 µM (inactive)"
- molecule: "c1ccc2c(c1)CN1CCCC1CN2 (stereo not given)"
  GI50: "> 100 µM (inactive)"
- molecule: "O=C1CSC(c2ccccc2O)N1c1ccc(-c2ccc(-n3c(-c4ccccc4)nc4ccccc4c3=O)cc2)cc1 (stereo not given)"
  GI50: "45.3 µM (inactive)"
- molecule: "O=C1C(Br)=Cc2c(Cl)sc(Cl)c21"
  GI50: "3.4 µM (inactive)"
- molecule: "COc1cc(C2S/C(=C/c3ccccc3)C(=O)N2c2ccc(NC(C)=O)cc2)cc(OC)c1OC (stereo not given)"
  GI50: "17.9 µM (inactive)"

----------
test system: LOX IMVI; test: NCI tumour cell line growth inhibition, 48 h
Activity calls are given as the source filed them. No stated cut-off is given here; in the data, active = GI50 up to about 1.1 µM and inactive = higher.
Labels: active, inactive

- compound: "CN1c2ccccc2C(=O)NC12CCNCC2"
  category label: "inactive"
- compound: "N#CC(=S)Nc1cccc(Cl)c1"
  category label: "inactive"
- compound: "O=[N+]([O-])C1=Cc2cc(Cl)ccc2OC1c1cccc2ccccc12 (configuration not stated)"
  category label: "active"
- compound: "C[N+](C)(C)CC(CC(=O)[O-])C1CC1 (configuration not stated)"
  category label: "inactive"
- compound: "C[N+](C)(C)/N=C\\c1ccc(O)c(O)c1"
  category label: "inactive"
- compound: "NC(=S)N1N=C2c3ccccc3CCC[C@H]2[C@@H]1c1ccccc1"
  category label: "inactive"
- compound: "CN(C)Cc1cc(C(=O)/C=C/c2ccc(Br)cc2)cc(CN(C)C)c1O"
  category label: "inactive"
- compound: "O=c1c2cc(I)ccc2nc(Sc2ccc([N+](=O)[O-])cc2[N+](=O)[O-])n1Cc1ccccc1"
  category label: "inactive"
- compound: "COc1ccc(C2=C(N)c3ccccc3C2=O)cc1"
  category label: "inactive"
- compound: "O=C(O)CCC1c2[nH]c3ccccc3c2CCN1Cc1ccccc1 (configuration not stated)"
  category label: "inactive"
- compound: "Cc1cc(Cl)cc2c1NC(=O)C2(O)CC(=O)c1ccc(Br)cc1 (configuration not stated)"
  category label: "inactive"
- compound: "CC(C)=CCNc1ncnc2[nH]cnc12"
  category label: "inactive"
- compound: "Cc1cc2c(cc1C)[n+]([O-])c(NCCCN(C)C)c(C#N)[n+]2[O-]"
  category label: "inactive"
- compound: "COc1ccc(N2C(=O)C3c4[nH]c5cccc(C)c5c4C4CCC(C(C)(C)C)CC4C3C2=O)cc1 (configuration not stated)"
  category label: "inactive"
- compound: "CN(/N=C/c1ccccn1)C1=NCCCCN1"
  category label: "inactive"
- compound: "O=C1CCC2(CC1)SCCCS2"
  category label: "inactive"
- compound: "Cc1cc2nc(N3C(=O)/C(=C/c4ccc(Cl)cc4)N=C3c3ccccc3)sc2cc1C"
  category label: "inactive"
- compound: "O=C(C1OC1c1ccc(Cl)cc1)C12CC3CC(CC(C3)C1)C2 (configuration not stated)"
  category label: "inactive"
- compound: "CCN(CC)c1ccc2cc(C(=O)Nc3cccc4ccccc34)c(=N)oc2c1"
  category label: "inactive"
- compound: "CCOP(=O)(/C=C/n1cc(C)c(=O)[nH]c1=O)OCC"
  category label: "inactive"
- compound: "CCOP(=O)(OCC)C(F)(F)c1ccc(CC(NC(=O)OC(C)(C)C)C(=O)O)cc1 (configuration not stated)"
  category label: "inactive"
- compound: "COc1cc2c(cc1OC(=O)CC(C)O)C1C(OC2=O)C(OC(C)=O)C=C2CCN(C)[C@H]21 (some centres not stated)"
  category label: "inactive"
- compound: "O=C1CC(c2cccc(Cl)c2)Nc2ccc(N3CCCC3)cc21 (configuration not stated)"
  category label: "active"
- compound: "CCOc1ccc(/N=N/C2C(=O)N(C(=O)CC(=O)Nc3ccccc3OC)N=C2C)cc1 (configuration not stated)"
  category label: "inactive"
- compound: "COCC12CCC(OC)C34C5CC6(O)C(OC)C=C(C5C6OC(=O)c5ccccc5)C(C(OC)C13)C4N(C)C2 (configuration not stated)"
  category label: "inactive"
- compound: "N#Cc1nc(-c2cccnc2)oc1N"
  category label: "inactive"
- compound: "O=S(=O)(O)c1cc(S(=O)(=O)O)c2cc(/N=N/c3ccc(/N=N/c4ccc(/C=C/c5ccc(/N=[N+](/[O-])c6ccc(/C=C/c7ccc(/N=N/c8ccc(/N=N/c9ccc%10cc(S(=O)(=O)O)cc(S(=O)(=O)O)c%10c9)cc8)cc7S(=O)(=O)O)c(S(=O)(=O)O)c6)cc5S(=O)(=O)O)c(S(=O)(=O)O)c4)cc3)ccc2c1"
  category label: "inactive"
- compound: "O=C(CC(=O)c1cccc([N+](=O)[O-])c1)C(=O)Nc1nc([N+](=O)[O-])cs1"
  category label: "inactive"
- compound: "O=c1[nH]c2cc([N+](=O)[O-])ccc2nc1/C(=N\\NO)C(O)c1ccc([N+](=O)[O-])cc1 (configuration not stated)"
  category label: "inactive"
- compound: "COc1cc(C(O)C(=O)c2cnc3cc([N+](=O)[O-])ccc3n2)ccc1O (configuration not stated)"
  category label: "inactive"
- compound: "O=C1CC(NCCCNC2CC(=O)c3c(Br)sc(Br)c32)c2c(Br)sc(Br)c21 (configuration not stated)"
  category label: "inactive"
- compound: "Cc1ccnc(NS(=O)(=O)c2ccc(NC(=O)c3ccc4nc5ccccc5c(Nc5ccc(S(=O)(=O)Nc6nccc(C)n6)cc5)c4c3)cc2)n1"
  category label: "inactive"
